Numbers sourced from paper PMC5348404.

# tested-target: UniProt P61586
# Sequence (P61586 whole entry): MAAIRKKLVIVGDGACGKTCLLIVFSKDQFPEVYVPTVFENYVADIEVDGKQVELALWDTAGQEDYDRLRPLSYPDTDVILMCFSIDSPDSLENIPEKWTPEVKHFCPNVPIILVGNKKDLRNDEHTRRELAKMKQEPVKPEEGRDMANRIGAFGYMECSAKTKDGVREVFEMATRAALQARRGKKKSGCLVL
value-kind: pKd
By convention, pKd is the negative base-10 log of a molar concentration.

Tested on UniProt P61586: O=C(N/N=C/c1ccc2c(c1)OCO2)c1ccncc1 . Observed pKd: 4.79
